# YAP1 (% UTC) per entry
Test system: Yap1 mRNA
experimentalProtocol: Antisense inhibition of human Yap1 in A-431 cells by cEt gapmers, single dose (Example 4, RTS4814)
Format: cell-based
appliedConditions: Yap1 mRNA remaining as percent of untreated control; 3-10-3 cEt gapmers; A-431 cells; Table 37
Strand notation (5' to 3'): a small letter for the sugar, then the base; units joined by * are phosphorothioate-linked, units joined directly phosphodiester-linked; [ ] holds rarer units or linkages, { } end groups; capitals alone tell only the bases. k = constrained ethyl (cEt); [5mC] = 5-methylcytosine; d = 2'-deoxy (DNA)
Please don't drop the unit; write it after the number.

Consider the worked cases shown below.
{"columns": ["substance", "YAP1 (% UTC)"],
 "data": [
  ["1075223 (kG*kT*kT*dA*dA*dA*dA*dG*dT*dG*dA*dA*d[5mC]*k[5mC]*k[5mC]*kA; antisense) [compound 1075223]", "19 % UTC"],
  ["1076439 (k[5mC]*kT*kT*dA*dT*dA*dT*dG*dG*dT*dT*dT*dT*kG*kT*kG) [compound 1076439]", "4 % UTC"]
]}

Form field YAP1 (% UTC), entry 1074615 (DNA kT*kT*k[5mC]*dA*dT*dA*dG*d[5mC]*dT*dT*dA*dT*dA*kT*kT*kG; antisense) [compound 1074615] : 8 % UTC
